meta.source: PubChem BioAssay (NCI)

# System: SNB-19 CNS
# procedure summary: NCI-60 one-dose screen, 48 h (100 = growth as untreated, 0 = no growth, -100 = all killed)
# measurement parameters: 10 µM unless noted
Compounds without any hit were thinned out: in the full panel of roughly 83,000, 20% have a hit.
Returns True if the recorded growth is greater than or equal to 80%, and False otherwise.

# input Check the entry COC(=O)C1(C)COP(=O)(Nc2ccc(OC)cc2)OC1 (stereo unspecified) : does growth equal or exceed 80%?
# output True

# input Check this compound for growth at or above 80%: CNCCNc1nc2ccccc2c2c(=O)c3cccc(C)c3sc12
# output False

# input Check if growth >= 80% (inclusive). Item: COC(=O)c1c2c(c(C)[n+]([O-])c1C)C(=O)C(NCc1ccc(F)c(F)c1)=CC2=O
# output False

# input Has Cc1ccc(OCCCCCCNCCO)c(C)c1 a recorded growth greater than or equal to 80%?
# output False

# input API: above_or_equal(metric=growth, cutoff=80%) for item COc1ccc(-c2nsc3c2NC(=O)CC3c2cccc(OC)c2)cc1 (stereo unspecified)
# output False

# input Quick check, growth >= 80%? O=S(=O)(c1ccc(NC(=S)NC23CC4CC(CC(C4)C2)C3)cc1)N1CCCCC1
# output True

# input Could you please find out whether O=C(Nc1ccc(F)cc1F)c1cc(Cl)ccc1O has growth that meets 80% or exceeds it?
# output False

# input Hi team, for CCN1C(=O)N(CC)C2C1NC(=S)N2/N=C/C=C/c1ccccc1OC (stereo unspecified) , is the recorded growth at or above 80%?
# output False

# input Check if growth >= 80% (inclusive). Item: Nc1ccc(C2c3ccccc3Oc3ccccc32)cc1
# output True

# input Hi team, for O=C(/C=C/c1ccc(Cl)cc1)c1ccc(Nc2nc(NCCO)nc(Nc3ccc(Cl)cc3)n2)cc1 , is the recorded growth at or above 80%?
# output False

# input Could you verify whether the entry CCOC(=O)c1cnc2c(C)cccc2c1Nc1ccc(C(C)=O)cc1 shows growth of no less than 80%?
# output False

# input Given the entry O=C(/C=C/c1ccc(C(F)(F)F)cc1)c1ccc(Nc2nc(NCCO)nc(N3CCOCC3)n2)cc1 , answer whether its growth meets or surpasses 80%.
# output False

# input # bool: growth of Nc1nonc1-n1nncc1-c1cccnc1 >= 80%
# output True
